Hi there, I'd appreciate the recorded cell viability for every entry that follows.
# Test system: SEM cells
# assay_text: cell viability relative to DMSO control; higher = less cytotoxic
# run_conditions: RPMI 5 mM glucose + 10% FBS; 48 h; 0.0211 µM
Numbers only; they are read as %.

GET /value?item= `C[C@@H]1[C@H]\2[C@H](O)[C@H]3[C@H](N(C)C)\C(=C(C(N)=O)/C(=O)[C@@]3(O)\C(=C2C(=O)C4=C(O)C=CC=C14)O)O` &field=cell viability returns 127

GET /value?item= `CC(C)(N)c1ccc(-c2nc3ccccc3nc2-c2ccccc2)cc1` &field=cell viability returns 36.2

GET /value?item= `CC(=O)N(C)C1(c2ccccc2)CCN(CCC[C@]2(c3ccc(Cl)c(Cl)c3)CCCN(C(=O)c3ccccc3)C2)CC1` &field=cell viability returns 126

GET /value?item= `COc1cc(C(=O)NC2CCN(C)CC2)ccc1Nc1ncc2c(n1)N(C1CCCC1)CCC(=O)N2C(C)C` &field=cell viability returns 130

GET /value?item= `Cc1ccc(C(=O)Nc2cccc(C(F)(F)F)c2)cc1Nc1nc(-c2cccnc2)nc2c1cnn2C` &field=cell viability returns 102

GET /value?item= `CO[C@H]1/C=C/O[C@@]2(C)Oc3c(C)c(O)c4c(c3C2=O)C2=NC3(CCN(CC(C)C)CC3)NC2=C(NC(=O)/C(C)=C/C=C/[C@H](C)[C@H](O)[C@@H](C)[C@@H](O)[C@@H](C)[C@H](OC(C)=O)[C@@H]1C)C4=O` &field=cell viability returns 133

GET /value?item= `Cc1cc(Nc2cc(N3CCN(C)CC3)nc(/C=C/c3ccccc3)n2)n[nH]1` &field=cell viability returns 112

GET /value?item= CC(C(C)N1CC(=O)NC(=O)C1)N1CC(=O)NC(=O)C1 (centres undefined) &field=cell viability returns 102

GET /value?item= `CC1(COc2ccc3c(c2)ncn3-c2ccc3cccc(N4CCC(N)CC4)c3n2)COC1` &field=cell viability returns 64.9

GET /value?item= `COc1ccc(/C=C\c2cc(OC)c(OC)c(OC)c2)cc1NC(=O)[C@H](N)CO` &field=cell viability returns 58.1

GET /value?item= CCC(C)CCCCC(=O)N[C@@H](CCN)C(=O)NC(C(=O)N[C@H](CCN)C(=O)N[C@@H]1CCNC(=O)C([C@@H](C)O)NC(=O)[C@@H](CCN)NC(=O)[C@@H](CCN)NC(=O)[C@@H](CC(C)C)NC(=O)[C@H](Cc2ccccc2)NC(=O)[C@H](CCN)NC1=O)[C@@H](C)O (some centres undefined) &field=cell viability returns 109

GET /value?item= `COc1cc2c(cc1OC)[C@@H]1Cc3ccc(OC)c(OC)c3CN1CC2` &field=cell viability returns 111

GET /value?item= `OC[C@H]1O[C@H](C[C@@H]1O)N2/C=C(C(=O)NC2=O)/C(F)(F)F` &field=cell viability returns 101

GET /value?item= `O=C1N(c2ccccc2)c2ccccc2C1(Cc1ccncc1)Cc1ccncc1` &field=cell viability returns 148

Origin of the recorded values: the supplement of paper PMC11451515
